tested.system: UniProt:Q96RI1
Sequence (Q96RI1 whole entry): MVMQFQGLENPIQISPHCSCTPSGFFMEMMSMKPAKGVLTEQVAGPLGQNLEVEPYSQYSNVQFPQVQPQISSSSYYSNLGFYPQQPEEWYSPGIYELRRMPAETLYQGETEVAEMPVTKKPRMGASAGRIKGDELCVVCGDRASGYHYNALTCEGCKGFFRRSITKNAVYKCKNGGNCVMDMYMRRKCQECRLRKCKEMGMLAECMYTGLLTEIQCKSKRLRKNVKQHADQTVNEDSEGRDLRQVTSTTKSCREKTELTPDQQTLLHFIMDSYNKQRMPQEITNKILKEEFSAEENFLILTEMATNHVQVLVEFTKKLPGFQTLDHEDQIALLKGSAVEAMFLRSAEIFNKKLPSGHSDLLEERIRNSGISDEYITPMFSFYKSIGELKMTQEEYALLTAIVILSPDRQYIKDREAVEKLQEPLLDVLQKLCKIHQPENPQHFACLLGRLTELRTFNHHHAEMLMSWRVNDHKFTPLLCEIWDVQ
Sequence (P19793 whole entry partner): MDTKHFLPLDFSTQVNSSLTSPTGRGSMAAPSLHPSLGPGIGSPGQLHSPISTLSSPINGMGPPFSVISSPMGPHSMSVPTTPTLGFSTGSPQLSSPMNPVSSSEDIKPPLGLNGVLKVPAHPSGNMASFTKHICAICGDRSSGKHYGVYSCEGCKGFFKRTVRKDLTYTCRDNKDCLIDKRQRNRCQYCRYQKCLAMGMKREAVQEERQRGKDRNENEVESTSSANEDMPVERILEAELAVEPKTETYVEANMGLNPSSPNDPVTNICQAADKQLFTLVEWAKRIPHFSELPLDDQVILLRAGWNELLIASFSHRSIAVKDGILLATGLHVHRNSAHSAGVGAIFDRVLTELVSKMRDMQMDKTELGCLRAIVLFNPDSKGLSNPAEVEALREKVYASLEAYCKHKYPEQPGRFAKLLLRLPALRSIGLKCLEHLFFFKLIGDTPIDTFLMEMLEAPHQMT
test.protocol: FXR luciferase reporter gene assay (FXRE-luc) in HepG2 cells, antagonistic mode
Assay type: cell-based
setup.conditions: HepG2; tested compound 40 µM, GW4064 1 µM; * = significant effect on cellular viability; read-out: relative response (%) to the model FXR ligand activation (set to be 100%), GW4064 1 µM
Entries and their remaining activity at 40 µM
experimental.readout: remaining activity at 40 µM (%)

| molecule | measurement.units | readout.number |
| --- | --- | --- |
| CC[C@@]1(O)C[C@@H]2C[C@H](O)CC[C@]2(C)C2CC[C@@]3(C)C(CC[C@@H]3[C@H](C)CCC(=O)O)C21 (some centres unmarked) | % | 75.3 |
| C[C@H](CCC(=O)O)[C@H]1CCC2C3C(CC[C@@]21C)[C@@]1(C)CC[C@@H](O)C[C@H]1C[C@@]3(C)O (some centres unmarked) | % | 64.9 |
| C=CC[C@@]1(O)C[C@@H]2C[C@H](O)CC[C@]2(C)C2CC[C@@]3(C)C(CC[C@@H]3[C@H](C)CCC(=O)O)C21 (some centres unmarked) | % | 74.4 |
| C#C[C@@]1(O)C[C@@H]2C[C@H](O)CC[C@]2(C)C2CC[C@@]3(C)C(CC[C@@H]3[C@H](C)CCC(=O)O)C21 (some centres unmarked) | % | 64.8 |
| CC(CCC(=O)O)C1CCC2C3C(CCC12C)C1(C)CCC(O)CC1CC3(O)C(C)C (centres unmarked) | % | 63 |
| C=C[C@@]1(O)C[C@@H]2C[C@H](O)CC[C@]2(C)C2CC[C@@]3(C)C(CC[C@@H]3[C@H](C)CCC(=O)O)C21 (some centres unmarked) | % | 75.2 |
| CCC[C@@]1(O)C[C@@H]2C[C@H](O)CC[C@]2(C)C2CC[C@@]3(C)C(CC[C@@H]3[C@H](C)CCC(=O)O)C21 (some centres unmarked) | % | 61.7 |
| C[C@H](CCC(=O)O)[C@H]1CCC2C3C(CC[C@@]21C)[C@@]1(C)CC[C@@H](O)C[C@H]1C[C@]3(O)C1CC1 (some centres unmarked) | % | 60.5 |
